Data origin, for the record: patent US20240002495A1

- experimentalTarget: T1, 6His-AviTag-linked cynomolgus monkey IL-33 (residues 112 to 269) (cynomolgus monkey, UniProt O95760 112-269 (human entry), biotin on the AviTag portion (BirA) in the SPR of Example 7; used without biotinylation in Example 10)
- T1 construct: GenBank EHH57404 printed; also called cynomolgus monkey IL-33 protein; mature cynomolgus monkey IL-33
- T1 chain: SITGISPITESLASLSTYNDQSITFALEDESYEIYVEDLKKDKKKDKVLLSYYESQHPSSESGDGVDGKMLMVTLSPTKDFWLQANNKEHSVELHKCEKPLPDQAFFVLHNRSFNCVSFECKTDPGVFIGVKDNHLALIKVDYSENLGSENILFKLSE
- protocolDetails: SPR, IL-33 on chip, Fab supernatant as analyte
Kindly return class 1 if reported Cynomolgus Monkey IL-33 Binding Amount (RU) is no lower than 200 RU; return class 0 if it is lower.

Asked: Check the entry A25-3H04 (Fab) (Fab, V domains shown, Fab secreted by E. coli, tested as culture supernatant; also called V17) VH: EVQLLESGGGLVQPGGSLRLSCAASGFTFSRYYMHWVRQAPGKGLEWVSSISAQSSHIYYADSVEGRFTISRDNSKNTLYLQMNSLRAEDTAVYYCARLATRQNAFDIWGQGTLVTVSS VL: QSVLTQPPSASGTPGQRVTISCSGSSSNIGRNAVNWYQQLPGTAPKLLIYASNMRRSGVPDRFSGSKSGTSASLAISGLRSEDEADYYCSAWDDSQKVVVFGGGTKLTVL : does Cynomolgus Monkey IL-33 Binding Amount (RU) equal or exceed 200 RU?
Given back: class 0

Asked: Check the entry A26-2B01 (Fab) (Fab, V domains shown, Fab secreted by E. coli, tested as culture supernatant; also called V20) VH: EVQLLESGGGLVQPGGSLRLSCAASGFTFSNYYMHWVRQAPGKGLEWVSSISARSSYIYYADSVKGRFTISRDNSKNTLYLQMNSLRAEDTAVYYCARLATRHNAFDIWGQGTLVTVSS VL: QSVLTQPPSASGTPGQRVTISCSGSSSNIGNNAVNWYQQLPGTAPKLLIYASNMRRLGVPDRFSGSKSGTSASLAISGLRSEDEADYYCAAWDDSQKAWVFGGGTKLTVL : does Cynomolgus Monkey IL-33 Binding Amount (RU) equal or exceed 200 RU?
Given back: class 1

Asked: Check the entry A25-2B02 (Fab) (Fab, V domains shown, Fab secreted by E. coli, tested as culture supernatant; also called V10) VH: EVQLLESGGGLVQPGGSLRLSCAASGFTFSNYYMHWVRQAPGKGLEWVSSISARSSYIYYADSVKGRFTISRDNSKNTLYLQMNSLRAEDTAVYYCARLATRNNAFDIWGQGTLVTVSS VL: QSVLTQPPSASGTPGQRVTISCSGSSSNIGRNAVNWYQQLPGTAPKLLIYASNMRVLGVPDRFSGSKSGTSASLAISGLRSEDEADYYCWAWDDSQKAVVFGGGTKLTVL : does Cynomolgus Monkey IL-33 Binding Amount (RU) equal or exceed 200 RU?
Given back: class 1

Asked: Check the entry A27-1C06 (Fab) (Fab, V domains shown, Fab secreted by E. coli, tested as culture supernatant; also called V22) VH: EVQLLESGGGLVQPGGSLRLSCAASGFTFSNYYMHWVRQAPGKGLEWVSSISARSSYIYYADSVKGRFTISRDNSKNTLYLQMNSLRAEDTAVYYCARLATRHSAFDIWGQGTLVTVSS VL: QSVLTQPPSASGTPGQRVTISCSGSSSNIGNNAVNWYQQLPGTAPKLLIYASNMRRLGVPDRFSGSKSGTSASLAISGLRSEDEADYYCGAWDDSQKAFVFGGGTKLTVL : does Cynomolgus Monkey IL-33 Binding Amount (RU) equal or exceed 200 RU?
Given back: class 1

Asked: Check the entry A25-2C07 (Fab) (Fab, V domains shown, Fab secreted by E. coli, tested as culture supernatant; also called V13) VH: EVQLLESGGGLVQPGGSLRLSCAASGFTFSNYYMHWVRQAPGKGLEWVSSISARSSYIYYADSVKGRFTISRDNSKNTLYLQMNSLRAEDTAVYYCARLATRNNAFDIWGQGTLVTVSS VL: QSVLTQPPSASGTPGQRVTISCSGSSSNIGNNAVNWYQQLPGTAPKLLIYASNMRGSGVPDRFSGSKSGTSASLAISGLRSEDEADYYCAAWDDSQKGQVFGGGTKLTVL : does Cynomolgus Monkey IL-33 Binding Amount (RU) equal or exceed 200 RU?
Given back: class 1

Asked: Check the entry A25-3G05 (Fab) (Fab, V domains shown, Fab secreted by E. coli, tested as culture supernatant; also called V16) VH: EVQLLESGGGLVQPGGSLRLSCAASGFTFSHYYMHWVRQAPGKGLEWVSSISALSSYIYYADSVRGRFTISRDNSKNTLYLQMNSLRAEDTAVYYCARLATRRDAFDIWGQGTLVTVSS VL: QSVLTQPPSASGTPGQRVTISCSGSSSNIGNNAVNWYQQLPGTAPKLLIYASNMRGLGVPDRFSGSKSGTSASLAISGLRSEDEADYYCGAWDDSQKVFVFGGGTKLTVL : does Cynomolgus Monkey IL-33 Binding Amount (RU) equal or exceed 200 RU?
Given back: class 0

Asked: Check the entry A26-1F02 (Fab) (Fab, V domains shown, Fab secreted by E. coli, tested as culture supernatant; also called V18) VH: EVQLLESGGGLVQPGGSLRLSCAASGFTFSNYYMHWVRQAPGKGLEWVSSISARSSYLYYADSVKGRFTISRDNSKNTLYLQMNSLRAEDTAVYYCARLATRHVAFDIWGQGTLVTVSS VL: QSVLTQPPSASGTPGQRVTISCSGSSSNIGNNAVNWYQQLPGTAPKLLIYASNMRRPGVPDRFSGSKSGTSASLAISGLRSEDEADYYCEAWDDSQKAVVFGGGTKLTVL : does Cynomolgus Monkey IL-33 Binding Amount (RU) equal or exceed 200 RU?
Given back: class 0

Asked: Check the entry A23-1A05 (Fab) (Fab, V domains shown, Fab secreted by E. coli, tested as culture supernatant; also called V8) VH: EVQLLESGGGLVQPGGSLRLSCAASGFTFSNYYMHWVRQAPGKGLEWVSSISARSRYHYYADSVKGRFTISRDNSKNTLYLQMNSLRAEDTAVYYCARLATRHNAFDIWGQGTLVTVSS VL: QSVLTQPPSASGTPGQRVTISCSGSSSNIGNNAVSWYQQLPGTAPKLLIYASNMRVIGVPDRFSGSKSGTSASLAISGLRSEDEADYYCGAWDDSQKALVFGGGTKLTVL : does Cynomolgus Monkey IL-33 Binding Amount (RU) equal or exceed 200 RU?
Given back: class 0

Asked: Check the entry A27-1A06 (Fab) (Fab, V domains shown, Fab secreted by E. coli, tested as culture supernatant; also called V21) VH: EVQLLESGGGLVQPGGSLRLSCAASGFTFSNYYMHWVRQAPGKGLEWVSSISARSSYRYYADSVKGRFTISRDNSKNTLYLQMNSLRAEDTAVYYCARLATRHLAFDIWGQGTLVTVSS VL: QSVLTQPPSASGTPGQRVTISCSGSSSNIGNNAVNWYQQLPGTAPKLLIYASNMRRPGVPDRFSGSKSGTSASLAISGLRSEDEADYYCAAWDDSQKVFVFGGGTKLTVL : does Cynomolgus Monkey IL-33 Binding Amount (RU) equal or exceed 200 RU?
Given back: class 1
